Listing: CD3 Binding (increase in MFI) of selected binders
measured on: T1, CD3 on (CD3+) T cells (human, UniProt P07766 23-207; P09693 23-182; P04234 22-171; P20963 22-164)
T1 construct: whole, on cells; also called CD3 protein multi-subunit complex
experiment description: flow cytometry; 10 µg/mL scFv on 50,000 CD3+ T cells; anti-FLAG FITC detection

{"binder": "Vulcanodon-C2 anti-CD3 scFv (SEQ ID NO: 8), FLAG and His-tagged version (scFv, also called Var CDR2; not shown: FLAG and His tags) scFv: QVQLQQSGAELARPGASVKMSCKTSGYTFTRYTMHWVKQRPGQGLEWMGIINPSGGSTSYAQKFKDKATLTTDKSSSTAYMQLSSLTSEDSAVYYCARYYDDHYSLDYWGQGTTLTVSSGGGGSGGGGSGGGGSGGGGSQIVLTQSPAIMSASPGEKVTMTCRASSSVSYMNWYQQKSGQAPRLLIYGASTRATGIPYRFSGSGSGTSYSLTISSMEAEDAATYYCQQWSSNPLTFGAGTKLELK", "observed": "~0 MFI"}

Okay, now this binder:
Input: Provide one value: measured CD3 Binding (increase in MFI) of Vulcanodon-3 anti-CD3 scFv (SEQ ID NO: 4), FLAG and His-tagged version (scFv, also called Var 3; not shown: FLAG and His tags) scFv: QVQLVQSGAEVKKLGASVKVSCKASGYTFTRYTMHWVKQAPGQGLEWIGYINPSRGYTNYNQKFQGRVTMTRDTSISTAYMELSRLRSDDTAVYYCARYYDDHYSLDYWGQGTLVTVSSGGGGSGGGGSGGGGSGGGGSDIQMTQSPSSLSASVGDRVTITCRASSSVSYMNWYQQKSGTSPKRWIYDTSKVASGVPYRFSGSGSGTDFTLTISSLQPEDFATYYCQQWSSNPLTFGAGTKLEIK
Output: 24 MFI

Data origin: patent US20240344030A1
